Attribution: paper PMC8725944

# Lookup of reported IC50 keyed by entry
test system: TNBC cell line MDA-MB-231; test: CCK-8 assay, antiproliferative activity against MDA-MB-231; settings: Homo sapiens, MDA-MB-231, 72 h, read-out: IC50 MDA-MB-231
Field: numeric (µM). Do not append units.

>>> number("COc1ccc2occ(CNC(=O)c3ccc(N(CCCl)CCCl)cc3)c(=O)c2c1 [Compound 22a]")
10.6

Note: attention shifts to another entry.
What the record says about COc1cccc2c1C(=O)c1c(O)c3c(c(O)c1C2=O)C[C@@](O)(C(=O)CO)C[C@@H]3O[C@H]1C[C@H](N)[C@H](O)[C@H](C)O1 [Adriamycin, reference compound] : IC50 is 2.94
